Test system: THP-1 macrophages
Experiment: Effect of compounds on host cell viability (MTT)
Type: cell-based
Each entry below carries its recorded CC50.
experimental.endpoint: CC50

compound	val
N#Cc1cccc(CN2CCC(Nc3ccc(-n4nc(C(F)(F)F)cc4-c4ccc(-c5ccc(C(F)(F)F)cc5)cc4)cc3)C2)c1 (centres unmarked)	> 300 µM
O=C(CNCc1cccc(F)c1)Nc1ccc(-n2cc(C(F)(F)F)nc2-c2ccc(-c3ccc(C(F)(F)F)cc3)cc2)cc1	> 300 µM

* * *

compounds and their reported CC50
System: THP-1 macrophages
Assay: Effect of compounds on host cell viability (MTT)
Type: cell-based
Conditions: read-out: 24h LC50; THP1 macrophages, 24-hour incubation, MTT assay (Supplemental Table 2)

compound	unit.annotation	limit.sign	CC50
FC(F)(F)Oc1ccc(-n2cc(C(F)(F)F)nc2-c2ccc(-c3ccccc3)cc2)cc1	µM	>	50
CCCCCC(=O)NC1CCN(c2ccc(-n3nc(C(F)(F)F)cc3-c3ccc(-c4ccc(C(F)(F)F)cc4)cc3)cc2)C1 (centres unmarked)	µM	>	50
O=C1CN(c2ccc(-n3cc(C(F)(F)F)nc3-c3ccc(C(F)(F)F)cc3)cc2)CCN1	µM	=	31.2
FC(F)(F)c1ccc(-c2ccc3nc[nH]c3c2)cc1	µM	>	50
Nc1ccc(-c2cc(C(F)(F)F)nn2-c2ccc(-c3ccc(C(F)(F)F)cc3)cc2)cc1	µM	=	43.6
O=C(CNCc1cccc(F)c1)Nc1ccc(-n2nc(C(F)(F)F)cc2C2CCCCC2)cc1	µM	=	29.3
NCC(=O)N1CC(Nc2ccc(-n3nc(C(F)(F)F)cc3-c3ccc(-c4ccc(C(F)(F)F)cc4)cc3)cc2)C1	µM	=	6.2
CC(=O)NCCN1CCC(Oc2ccc(-n3nc(C(F)(F)F)cc3C3CCCCC3)cc2)CC1	µM	=	24.4

* * *

System: THP-1 macrophages
Assay: Effect of compounds on host cell viability (MTT)
Format: cell-based
Conditions: read-out: 24h LC50; THP1 macrophages, 24-hour incubation, MTT assay (Supplemental Table 2)

compound	limit.sign	CC50 (µM)
FC(F)(F)c1cc(C2CCCCC2)n(-c2ccc(N3CCC(NCc4ccccc4)C3)cc2)n1 (stereo not shown) [Compound 364]	=	31.1
FC(F)(F)c1cc(C(F)(F)F)n(-c2ccc(Br)cc2)n1 [Compound 276]	=	32.2
CC(C)(C)OC(=O)NC(Cc1ccccc1)C(=O)Nc1ccc(-n2cc(C(F)(F)F)nc2-c2ccc(-c3ccc(C(F)(F)F)cc3)cc2)cc1 (stereo not shown) [Compound 78]	>	50
FC(F)(F)C#Cc1ccc(-c2cc(C(F)(F)F)nn2-c2ccc(N3CCNCC3)cc2)cc1 [Compound 93]	=	40

* * *

System: THP-1 macrophages
Test: Effect of compounds on host cell viability (MTT)
Type: cell-based
Conditions: read-out: 24 hr viability of THP-1 macrophages 24h LC50; THP-1 macrophages, 24-hour incubation, MTT assay
Some molecules, each annotated with its measured CC50.
experimental.endpoint: CC50 (µM)

molecule	tested.system	limit.sign	val
FC(F)(F)c1ccc(-c2nc(C(F)(F)F)cn2-c2ccc(NC3CCNCC3)cc2)cc1	THP-1 macrophages	=	25.4
Oc1ccccc1CN1CCC(Nc2ccc(-n3nc(C(F)(F)F)cc3-c3ccc(-c4ccc(C(F)(F)F)cc4)cc3)cc2)C1 (stereo not shown)	THP-1 macrophages	>	50
Oc1ccc(CNC2CCN(c3ccc(-n4nc(C(F)(F)F)cc4C4CCCCC4)cc3)CC2)cc1	THP-1 macrophages	=	6.4
CC(C)(C)OC(=O)NC1CCN(c2ccc(-n3nncc3-c3ccc(C(F)(F)F)cc3)cc2)C1 (stereo not shown)	THP-1 macrophages	=	29
O=C(Nc1ccc(-n2cc(C(F)(F)F)nc2-c2ccc(-c3ccccc3)cc2)cc1)C1CCN(Cc2ccccc2)C1 (stereo not shown)	THP-1 macrophages	=	21.9
FC(F)(F)c1ccc(-c2ccc(-c3cc(C(F)(F)F)nn3-c3ccc(NC4CCNC4)cc3)cc2)cc1 (stereo not shown)	THP-1 macrophages	=	28.9
NCC(=O)Nc1ccc(-n2cc(C(F)(F)F)nc2-c2ccc(-c3ccccc3)cc2)cc1	THP-1 macrophages	=	23.5

* * *

We begin with a simple list: items and their reported CC50.
Test system: THP-1 macrophages
Assay: Effect of compounds on host cell viability (MTT)
Type: cell-based
Settings: read-out: 24h LC50; THP1 macrophages, 24-hour incubation, MTT assay (Supplemental Table 2)
experimental.endpoint: CC50 (µM)

compound	experimental.endpoint	limit.sign	val
CC(=O)NCCCNC1CCN(c2ccc(-n3nc(C(F)(F)F)cc3C3CCCCC3)cc2)CC1	CC50	=	19
O=[N+]([O-])c1ccc(-n2cc(C(F)(F)F)nc2-c2ccc(-c3ccc(C(F)(F)F)cc3)cc2)cc1	CC50	=	25.5
FC(F)(F)c1cc(C2CCCCC2)n(-c2ccc(OC3CCNCC3)cc2)n1	CC50	=	19.5
Nc1ccc(-n2nc(C(F)(F)F)cc2C2CCCCC2)cc1	CC50	>	50
CC(C)(C)c1nc(C(F)(F)F)cn1-c1ccc(Br)cc1	CC50	>	50
CC(C)(C)OC(=O)NC1CCN(c2ccc(-n3nc(C(F)(F)F)cc3C(C)(C)C)cc2)C1 (stereo not shown)	CC50	>	50
FC(F)(F)c1cc(-c2ccc(-c3ccc(S(F)(F)(F)(F)F)cc3)cc2)n(-c2ccc(Br)cc2)n1	CC50	>	50
FC(F)(F)c1cc(-c2ccco2)n(-c2ccc(Br)cc2)n1	CC50	>	50
NCCCNC1CCN(c2ccc(-n3nc(C(F)(F)F)cc3C3CCCCC3)cc2)CC1	CC50	=	7
NCC(=O)NC1CCN(c2ccc(-n3nc(C(F)(F)F)cc3-c3ccc(-c4ccc(C(F)(F)F)cc4)cc3)cc2)C1 (stereo not shown)	CC50	=	37.2
O=[N+]([O-])c1ccc(-n2nc(C3CCCCC3)cc2C(F)(F)F)cc1	CC50	>	50
FC(F)(F)c1ccc(-c2ccc(-c3cc(C(F)(F)F)nn3-c3ccc(Br)cc3)cc2)cc1	CC50	>	50
FC(F)(F)c1cn(-c2ccc(NC3CCNC3)cc2)c(-c2ccncc2)n1 (stereo not shown)	CC50	>	50
FC(F)(F)c1ccc(-c2ccc(-c3cc(C(F)(F)F)nn3-c3ccc(N4CC(NC5CCCC5)C4)cc3)cc2)cc1	CC50	=	29.7
O=C(CO)Nc1ccc(-n2cc(C(F)(F)F)nc2-c2ccc(C(F)(F)F)cc2)cc1	CC50	>	50
Fc1cccc([C@@H]2CCCN2)c1	CC50	>	50
NC1CCN(c2ccc(-n3nc(C(F)(F)F)cc3-c3ccc(-c4ccc(S(F)(F)(F)(F)F)cc4)cc3)cc2)C1 (stereo not shown)	CC50	=	6
NCC(=O)Nc1ccc(-n2cnc3ccccc32)cc1	CC50	>	50
FC(F)(F)c1cc(-c2ccc(C#CC3CC3)cc2)n(-c2ccc(N3CCNCC3)cc2)n1	CC50	=	0.7
CC(C)(C)OC(=O)NC1CCN(c2ccc(-n3nc(C(F)(F)F)cc3-c3ccc(-c4ccc(C(F)(F)F)cc4)cc3)cc2)CC1	CC50	>	50
CC(C)C#Cc1ccc(-c2cc(C(F)(F)F)nn2-c2ccc(Br)cc2)cc1	CC50	=	37.5
FC(F)(F)c1ccc(-c2ccc(-c3nc(C(F)(F)F)cn3-c3ccc(NC4CCNC4)cc3)cc2)cc1 (stereo not shown)	CC50	=	5.5

* * *

System: THP-1 macrophages
Assay: Effect of compounds on host cell viability (MTT)
Format: cell-based
Conditions: read-out: 24h LC50; THP1 macrophages, 24-hour incubation, MTT assay (Supplemental Table 2)
Reported CC50 by item:

compound	tested.system	CC50
COc1ccc(-c2cc(C(F)(F)F)nn2-c2ccc(Br)cc2)cc1OC	THP-1 macrophages	> 50 µM
O=[N+]([O-])c1ccc(-c2cc(C(F)(F)F)nn2-c2ccc(Br)cc2)cc1	THP-1 macrophages	> 50 µM
FC(F)(F)c1cc(-c2ccc(-c3ccc(S(F)(F)(F)(F)F)cc3)cc2)n(-c2ccc(N3CCC(NCc4ccccc4)C3)cc2)n1 (centres unmarked)	THP-1 macrophages	> 50 µM
NCC(=O)Nc1ccc(-n2cc(C(F)(F)F)nc2C2CCCCC2)cc1	THP-1 macrophages	> 50 µM
CCc1cc(-c2ccc(-c3ccc(C(F)(F)F)cc3)cc2)n(-c2ccc(Br)cc2)n1	THP-1 macrophages	> 50 µM
O=[N+]([O-])c1ccc(-n2nc(-c3ccc(Br)cc3)cc2C(F)(F)F)cc1	THP-1 macrophages	> 50 µM
NC1CN(c2ccc(-n3nc(C(F)(F)F)cc3-c3ccc(-c4ccc(C(F)(F)F)cc4)cc3)cc2)C1	THP-1 macrophages	> 50 µM
NCC(=O)NC1CCN(c2ccc(-n3nc(C(F)(F)F)cc3-c3ccc(-c4ccc(C(F)(F)F)cc4)cc3)cc2)CC1	THP-1 macrophages	5.2 µM
FC(F)(F)c1ccc(-c2ccc(-c3cc(C(F)(F)F)nn3-c3ccc(NC4CCN(Cc5ccccc5)C4)cc3)cc2)cc1 (centres unmarked)	THP-1 macrophages	13.6 µM
O=[N+]([O-])c1ccc(-n2nc(C(F)(F)F)cc2-c2ccc(Br)cc2)cc1	THP-1 macrophages	> 50 µM
CC(C)(C)c1nc(C(F)(F)F)cn1-c1ccc(NC2CCNC2)cc1 (centres unmarked)	THP-1 macrophages	> 50 µM
Cc1cc(C(F)(F)F)n(-c2ccc(NC3CCNC3)cc2)n1 (centres unmarked)	THP-1 macrophages	> 50 µM
Fc1cccc(CN2CCC(Oc3ccc(-n4nc(C(F)(F)F)cc4C4CCCCC4)cc3)CC2)c1	THP-1 macrophages	> 50 µM
CC(C)C#Cc1ccc(-c2cc(C(F)(F)F)nn2-c2ccc([N+](=O)[O-])cc2)cc1	THP-1 macrophages	29 µM
FC(F)(F)c1cc(-c2ccc(C3CC3)cc2)n(-c2ccc(N3CCNCC3)cc2)n1	THP-1 macrophages	13.2 µM
FC(F)(F)c1ccc(-c2ccc(-c3cc(C(F)(F)F)nn3-c3ccc(N4CC(NCc5ccccc5)C4)cc3)cc2)cc1	THP-1 macrophages	6.3 µM
NCC(=O)Nc1ccc(-n2nc(C(F)(F)F)c3c2CCCC3)cc1	THP-1 macrophages	47 µM
FC(F)(F)c1ccc(-c2ccc(-c3cc(C(F)(F)F)nn3-c3ccc(N4CCC(NCc5cccc(Cl)c5Cl)C4)cc3)cc2)cc1 (centres unmarked)	THP-1 macrophages	> 50 µM
FC(F)(F)c1c[nH]c(-c2ccc(Cl)cc2)n1	THP-1 macrophages	> 50 µM
NCCN1CCC(Oc2ccc(-n3nc(C(F)(F)F)cc3C3CCCCC3)cc2)CC1	THP-1 macrophages	18.2 µM
NCCNC1CCN(c2ccc(-n3nc(C(F)(F)F)cc3C3CCCCC3)cc2)CC1	THP-1 macrophages	12.6 µM
FC(F)(F)c1cc(-c2ccc(Cl)c(Cl)c2)n(-c2ccc(NC3CCNC3)cc2)n1 (centres unmarked)	THP-1 macrophages	22.4 µM
O=S(=O)(c1ccc(-n2cc(C(F)(F)F)nc2-c2ccc(-c3ccc(C(F)(F)F)cc3)cc2)cc1)C(F)(F)F	THP-1 macrophages	> 50 µM
CC(C)(C)OC(=O)NC1CCN(c2ccc(-n3cc(C(F)(F)F)nc3-c3ccc(-c4ccccc4)cc3)cc2)C1 (centres unmarked)	THP-1 macrophages	> 50 µM
Nc1ccc(-n2cc(C(F)(F)F)nc2-c2ccc(Cl)cc2)cc1	THP-1 macrophages	> 50 µM
CC(C)(C)OC(=O)N[C@@H]1CCN(c2ccc(-n3nc(C(F)(F)F)cc3-c3ccc(-c4ccc(C(F)(F)F)cc4)cc3)cc2)C1	THP-1 macrophages	> 50 µM
